Recorded values, source PubChem BioAssay.

assay: sensitizers of A549 cells to miR-34 induction, primary screen, imaging, A549 dox-inducible miR-34, nuclei and caspase counts (AID 1347080); details: A549 miR-34 inducible, Hoechst nuclei count, 48 h; measured here: total cells with miR-34 induction; stronger effect = lower value
Label key: t means cell count under 9000; f means cell count of 9000 or more.

*Q* Report whether reported cell count is lower than 9000 (strictly) for c1ccc(CCCCN2CCC(c3ccccc3)CC2)cc1
*A* t

###

molecular target: ATP-dependent translocase ABCB1 (Homo sapiens) (UniProt P08183); assay: MDR1 (ABCB1) efflux transporter inhibition, cell-based (AID 377); conditions: MDR1-expressing cells, fluorescent substrate accumulation slope; concentration not given here
Sequence (P08183 whole entry, looked up): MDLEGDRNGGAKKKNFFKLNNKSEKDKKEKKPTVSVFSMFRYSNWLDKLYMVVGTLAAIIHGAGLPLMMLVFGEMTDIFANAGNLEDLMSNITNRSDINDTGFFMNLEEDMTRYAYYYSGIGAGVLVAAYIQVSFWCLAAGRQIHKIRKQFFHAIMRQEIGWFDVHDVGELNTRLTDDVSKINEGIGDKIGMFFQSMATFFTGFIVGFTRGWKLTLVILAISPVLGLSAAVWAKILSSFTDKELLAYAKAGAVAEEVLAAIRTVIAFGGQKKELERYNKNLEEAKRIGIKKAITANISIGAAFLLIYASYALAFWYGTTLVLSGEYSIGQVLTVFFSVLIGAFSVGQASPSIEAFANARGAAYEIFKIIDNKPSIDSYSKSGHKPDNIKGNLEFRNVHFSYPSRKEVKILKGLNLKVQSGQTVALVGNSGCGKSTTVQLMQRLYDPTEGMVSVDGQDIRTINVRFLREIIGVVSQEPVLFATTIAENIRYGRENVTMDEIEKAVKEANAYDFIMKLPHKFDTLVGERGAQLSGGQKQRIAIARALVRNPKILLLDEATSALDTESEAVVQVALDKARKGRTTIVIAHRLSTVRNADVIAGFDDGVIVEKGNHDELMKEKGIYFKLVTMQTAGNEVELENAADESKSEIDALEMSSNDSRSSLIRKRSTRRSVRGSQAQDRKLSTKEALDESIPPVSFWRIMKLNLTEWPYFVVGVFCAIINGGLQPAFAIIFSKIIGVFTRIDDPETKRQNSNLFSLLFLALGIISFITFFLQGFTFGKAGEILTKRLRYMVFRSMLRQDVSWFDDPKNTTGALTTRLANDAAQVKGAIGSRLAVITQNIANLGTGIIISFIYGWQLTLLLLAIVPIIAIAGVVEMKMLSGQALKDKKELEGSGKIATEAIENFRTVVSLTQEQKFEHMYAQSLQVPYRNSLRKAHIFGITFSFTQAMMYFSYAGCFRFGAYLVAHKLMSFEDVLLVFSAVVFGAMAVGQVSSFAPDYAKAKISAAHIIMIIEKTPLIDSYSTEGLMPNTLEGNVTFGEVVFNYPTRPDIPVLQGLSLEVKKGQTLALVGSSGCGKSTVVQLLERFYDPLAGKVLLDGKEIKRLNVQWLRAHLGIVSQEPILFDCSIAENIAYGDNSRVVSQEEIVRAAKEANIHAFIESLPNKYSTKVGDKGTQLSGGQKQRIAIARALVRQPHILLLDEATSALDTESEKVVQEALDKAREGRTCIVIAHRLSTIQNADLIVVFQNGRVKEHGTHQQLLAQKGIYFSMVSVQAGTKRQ
Results filed as inconclusive are left out. The source made the active and inactive calls. No stated cut-off is given here; in the data, active means fluorescence slope change above about 50%; inconclusive means mostly about 31% to 49%; inactive means weaker than that.
Use one of these outcomes when replying: Y = active, N = inactive

Worked examples follow.
[
  {
    "Compound": "O=C1C=C2C=C[C@@H]3CC2(O1)[C@H]1CCCCN31",
    "Discrete Label": "N"
  },
  {
    "Compound": "CC1OC(OC2/C=C/C=C/C=C/C=C/CC/C=C/C=C/[C@H](C)[C@@H](O)[C@@H](C)[C@H](C)OC(=O)CC(O)CC(O)CC(O)CCC(O)C(O)C[C@]3(O)CC(O)C(C(=O)O)C(C2)O3)C(O)C(N)C1O (some centres not stated)",
    "Discrete Label": "Y"
  },
  {
    "Compound": "COc1cc2c(c(OC)c1OC)-c1ccc(O)c(=O)cc1C(N)CC2 (configuration not stated)",
    "Discrete Label": "Y"
  },
  {
    "Compound": "O=C(CCCN1CCC2(CC1)C(=O)NCN2c1ccccc1)c1ccc(F)cc1",
    "Discrete Label": "Y"
  },
  {
    "Compound": "C[C@H]1CC[C@]2(NC1)O[C@H]1C[C@H]3[C@@H]4CC[C@H]5C[C@@H](O)CC[C@]5(C)[C@H]4CC[C@]3(C)[C@H]1[C@@H]2C",
    "Discrete Label": "Y"
  }
]

*Q* Recorded call for Fc1ccc(C(OCCN2CCN(CCCc3ccccc3)CC2)c2ccc(F)cc2)cc1 ?
*A* Y

*Q* // next record NCCc1c[nH]c2ccc(O)cc12
*A* Y

*Q* Another: C[C@]12CCC3[C@@H](CC[C@@H]4C[C@H](O)CC[C@]34C)[C@@H]1CCC2=O (some centres not stated)
*A* Y

*Q* Now this one: c1ccc2nc(N3CCNCC3)ccc2c1
*A* N

*Q* Now the compound COc1ccc2c(c1OC)C(=O)O[C@@H]2[C@H]1c2cc3c(cc2CCN1C)OCO3
*A* Y

*Q* Entry to check: CO[C@@H]1C=C2CCN(C)[C@@H]2C2c3cc4c(cc3C(=O)OC21)OCO4 (some centres not stated)
*A* N

*Q* Now the compound C[C@@H]1C[C@@H]([C@H](O)CC2CC(=O)NC(=O)C2)C(=O)[C@@H](C)C1
*A* N

*Q* For CNC(C)(C)Cc1ccccc1 then?
*A* N

*Q* What do you have for CN(C)Cc1c[nH]c2ccccc12 ?
*A* Y

*Q* Also, CC(N)C(O)c1ccccc1 (configuration not stated) please.
*A* N

*Q* Please answer likewise for CC(C)[C@@]1(NC(=O)[C@@H]2C[C@@H]3c4cccc5[nH]cc(c45)C[C@H]3N(C)C2)O[C@@]2(O)[C@@H]3CCCN3C(=O)[C@H](Cc3ccccc3)N2C1=O
*A* Y

*Q* Now consider C[C@H]1C(=O)O[C@@H]2CCN3CC=C(COC(=O)[C@](C)(O)[C@]1(C)O)[C@H]23 and answer again.
*A* N

*Q* Try this compound next: C/C=C1/C[N+]2(C)CCC34C(=C(C=O)[C@H]1C[C@@H]32)Nc1ccccc14 (some centres not stated)
*A* N
